Reference for the values: ChEMBL document CHEMBL5380779

# TEST METHOD NOTES: Inhibition of HuR-ARE fluorescein-labeled Msi1 mRNA binding (unknown origin) by fluorescence polarization assay
# Design: species or system Homo sapiens
RESULT TYPE: IC50 (µM)

I = CC(C)(C)c1ccc(C(=O)Nc2ccc3sc(/C=C/C(=O)NO)cc3c2)cc1
II = CC(C)(C)c1ccc(S(=O)(=O)Nc2ccc3sc(/C=C/C(=O)NO)cc3c2)cc1
// pick larger IC50 from pair: I vs II # respond with the chosen item's label II
(II: 3.34 µM, I: 0.597 µM)

* * *

# TEST METHOD NOTES: Inhibition of full-length HuR-ARE fluorescein-labeled Msi1 mRNA binding (unknown origin) incubated for 2 hrs by fluorescence polarization assay
# Set-up: species or system Homo sapiens
pKi: −log10 of the molar value.
RESULT TYPE: pKi

> print(dat)
                               smiles.input  experimental.result
1  CC(C)(C)c1ccc(C(=O)Nc2ccc3[nH]c(/C=C/C(=O)O)cc3c2)cc1                 5.47

I = CC(C)(C)c1ccc(C(=O)Nc2ccc3sc(CCC(=O)O)cc3c2)cc1
II = CC(C)(C)c1ccc(C(=O)Nc2ccc3sc(CCC(=O)NO)cc3c2)cc1
// which entry has the larger pKi value, I or II ? State the label of the item chosen. II
(II: 6.08, I: 5.42)
